Catalogue of Ratio values
measuredTarget: Histone deacetylase (Homo sapiens) (UniProt Q13547+O15379+Q9UBN7+Q92769+Q9UQL6+Q8WUI4+Q9BY41+Q96DB2+P56524+Q9UKV0+Q969S8)
protocolSummary: Inhibition of HDAC activity in human NB4 cells assessed as maximum acetylation of histone H4 at EC50 concentration after 24 hrs by Western blot analysis relative to control
Type: cell-based
protocolConditions: NB-4
Give your answer as a number; write no unit.

Some molecules with recorded Ratio:
COc1ccc2c(c1)N(CCCCCC(=O)NO)C(=O)c1ccccc1S2
28
COc1ccc2c(c1)N(CCCCCC(=O)NO)C(=O)c1ccccc1O2
206
O=C(CCCCCN1C(=O)c2ccccc2Nc2ccc(Cl)cc21)NO
78
O=C(CCCCCN1C(=O)c2ccccc2S(=O)(=O)c2ccc(Cl)cc21)NO
795
O=C(CCCCCN1C(=O)c2ccccc2S(=O)(=O)c2ccccc21)NO
336

Lab note: measured Ratio of "O=C(CCCCCN1C(=O)c2ccccc2Sc2ccccc21)NO" was 89

Record summary for "O=C(CCCCCN1C(=O)c2ccccc2Nc2ccccc21)NO" : reported Ratio = 126

Entry "O=C(CCCCCN1C(=O)c2ccccc2Sc2ccc(Cl)cc21)NO" ; Ratio = 2330

Lab book: Ratio of "CN1c2ccccc2C(=O)N(CCCCCC(=O)NO)c2ccccc21" noted as 14

For this molecule ( "O=C(CCCCCN1C(=O)c2ccccc2Oc2ccc(Cl)cc21)NO" ), measured Ratio is 9

Provenance of the data: ChEMBL document CHEMBL1687690
